- ASSAYED_TARGET: hM1 (Homo sapiens, UniProt P11229)
- Sequence (P11229 1-460): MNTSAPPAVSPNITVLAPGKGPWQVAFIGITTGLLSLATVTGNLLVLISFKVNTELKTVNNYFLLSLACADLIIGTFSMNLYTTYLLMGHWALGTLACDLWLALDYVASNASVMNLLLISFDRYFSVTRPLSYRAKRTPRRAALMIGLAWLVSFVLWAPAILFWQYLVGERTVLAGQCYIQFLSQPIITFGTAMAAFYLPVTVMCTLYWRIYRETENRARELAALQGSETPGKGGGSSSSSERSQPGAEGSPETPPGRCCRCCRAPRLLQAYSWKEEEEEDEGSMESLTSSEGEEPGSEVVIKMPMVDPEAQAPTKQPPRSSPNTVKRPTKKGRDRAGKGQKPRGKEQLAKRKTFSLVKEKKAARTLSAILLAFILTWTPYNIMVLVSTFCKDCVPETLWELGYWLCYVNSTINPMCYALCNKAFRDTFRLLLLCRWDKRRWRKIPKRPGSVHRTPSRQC
- ASSAY_NAME: hM1 antagonist potency, calcium mobilization assay
- Format: cell-based
- SETUP_CONDITIONS: hM1; at the highest concentration tested (30 μM)
MEASURED_ENDPOINT: % ACh activity remaining (%)
One number for each entry, in %.

Please review the entries below; each comes with its answer.
[[record]]
smiles_representation = "O=C(C1CN(S(=O)(=O)c2ccc(Cl)cn2)C1)N1CCN(c2ccncc2)CC1"
result = 41

[[record]]
smiles_representation = "O=C(C1CN(S(=O)(=O)c2ccc(C(F)(F)F)nc2)C1)N1CCN(c2ccncc2)CC1"
result = 40

[[record]]
smiles_representation = "Cc1ccnc(S(=O)(=O)N2CC(C(=O)N3CCN(c4ccncc4)CC3)C2)c1"
result = 38


Please fill in: % ACh activity remaining reported for `COc1ccc(S(=O)(=O)N2CC(C(=O)N3CCN(c4ccncc4)CC3)C2)cn1` = 20

----------
- ASSAY_NAME: in vitro hepatic microsome intrinsic clearance
- Assay type: in vitro ADME, rat
- SETUP_CONDITIONS: rat, hepatic microsomes
MEASURED_ENDPOINT: CLint scaled (mL/min/kg)
Give bare numbers, in mL/min/kg.

The compound listed as O=C(C1CN(S(=O)(=O)c2cccc3cnccc23)C1)N1CC2CN(c3ccncc3)CC2C1 (stereo not shown) [12a] has a reported CLint scaled of 107

----------
- ASSAYED_TARGET: hM1 (Homo sapiens, UniProt P11229)
- ASSAY_NAME: hM1 antagonist potency, calcium mobilization assay
- Assay type: cell-based
MEASURED_ENDPOINT: IC50 (µM)
Answers are plain numbers, in µM.

Record `O=C(C1CN(S(=O)(=O)c2cccc3nonc23)C1)N1CCN(c2ccccn2)CC1` ; system hM1 (Homo sapiens, UniProt P11229); IC50 = 5
